# SUBJECT_OF_TEST: Short transient receptor potential channel 6 (Mus musculus) (UniProt Q61143)
# Sequence (Q61143 whole entry, looked up): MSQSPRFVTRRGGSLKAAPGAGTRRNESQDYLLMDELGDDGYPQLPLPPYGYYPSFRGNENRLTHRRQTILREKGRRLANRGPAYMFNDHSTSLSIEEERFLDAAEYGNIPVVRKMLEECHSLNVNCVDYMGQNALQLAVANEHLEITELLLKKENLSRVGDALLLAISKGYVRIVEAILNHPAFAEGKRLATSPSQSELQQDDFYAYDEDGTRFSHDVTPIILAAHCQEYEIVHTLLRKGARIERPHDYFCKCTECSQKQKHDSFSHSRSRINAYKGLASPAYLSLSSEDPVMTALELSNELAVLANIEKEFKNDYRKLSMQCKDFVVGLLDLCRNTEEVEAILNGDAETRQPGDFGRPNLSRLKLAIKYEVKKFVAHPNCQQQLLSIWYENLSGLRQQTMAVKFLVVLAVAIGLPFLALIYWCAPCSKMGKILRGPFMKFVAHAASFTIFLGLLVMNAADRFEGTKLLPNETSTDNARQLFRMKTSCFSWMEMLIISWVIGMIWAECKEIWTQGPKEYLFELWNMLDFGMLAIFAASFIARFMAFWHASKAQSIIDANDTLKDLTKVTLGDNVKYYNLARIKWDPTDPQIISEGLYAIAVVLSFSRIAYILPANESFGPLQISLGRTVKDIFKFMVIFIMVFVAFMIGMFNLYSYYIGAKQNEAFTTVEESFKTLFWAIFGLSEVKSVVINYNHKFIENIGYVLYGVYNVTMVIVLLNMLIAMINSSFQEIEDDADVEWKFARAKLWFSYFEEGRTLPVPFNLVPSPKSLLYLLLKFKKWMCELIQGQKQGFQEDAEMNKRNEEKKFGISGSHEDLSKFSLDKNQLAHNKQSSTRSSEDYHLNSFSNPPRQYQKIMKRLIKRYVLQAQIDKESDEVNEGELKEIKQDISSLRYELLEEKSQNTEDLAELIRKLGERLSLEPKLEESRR
# PROTOCOL_NOTES: mouse TRPC6 channel inhibitors, primary screen, cell-based, HEK293, membrane potential dye (AID 2553)
# CONDITION_NOTES: ACh-evoked depolarization, at 10 µM
Among all 310,000 compounds or so, about 3,300 (1.1%) were called active.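 Rule for the calls: active = B-score under library mean minus 3 SD, initial fluorescence not abnormally high, positive integrated signal ratio; inactive = the rest.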 This is one part of a sample in which actives are shown more often than they occur.
// one of 1 (active), 0 (inactive), no free text

COMPOUND | SUBJECT_OF_TEST | ANSWER_LABEL
COc1ccc(OCc2cc(C(=O)N3CCCC3)no2)c2ccccc12 | Short transient receptor potential channel 6 (Mus musculus) (UniProt Q61143) | 0
Cc1c(CCO)sc[n+]1CC(=O)OC12CC3CC(CC(C3)C1)C2 | Short transient receptor potential channel 6 (Mus musculus) (UniProt Q61143) | 0
CN1CCN(c2ccc([N+](=O)[O-])c(Sc3nc4ccccc4[nH]3)c2)CC1 | Short transient receptor potential channel 6 (Mus musculus) (UniProt Q61143) | 1
CCOC(=O)c1sc(N(Cc2ccccc2)C(=O)CN2C(=O)CN(C)C2=O)nc1C | Short transient receptor potential channel 6 (Mus musculus) (UniProt Q61143) | 0
CC1CCN(c2ccc([N+](=O)[O-])c(SCCO)c2)CC1 | Short transient receptor potential channel 6 (Mus musculus) (UniProt Q61143) | 0
CCN(CC)C(=O)CSc1ncnc2c1cnn2-c1ccccc1 | Short transient receptor potential channel 6 (Mus musculus) (UniProt Q61143) | 0
CC(NC(=O)CCC(=O)N1CCN(S(=O)(=O)c2ccc(Cl)cc2)CC1)c1ccccc1 (centres undefined) | Short transient receptor potential channel 6 (Mus musculus) (UniProt Q61143) | 0
Cc1cccc(NC(=S)NCCN(C2CCCCC2)C2CCCC2)c1 | Short transient receptor potential channel 6 (Mus musculus) (UniProt Q61143) | 1

Continue with the next compound.
Record lookup: outcome of this test for CCN1CCC2(CCN(Cc3cn[nH]c3-c3ccc(OC)c(F)c3)C2)C1 (centres undefined) ?
0
